- tested on: T1, recombinant human NKG2C/CD94 heterodimer (extracellular domains) (human, UniProt P26717 94-231; Q13241 32-179)
- T1 construct: extracellular domain; also called HuNKG2C/huCD94; NKG2C/CD94 ECDs
- T1 sequence (P26717 94-231, chain 1 of 2): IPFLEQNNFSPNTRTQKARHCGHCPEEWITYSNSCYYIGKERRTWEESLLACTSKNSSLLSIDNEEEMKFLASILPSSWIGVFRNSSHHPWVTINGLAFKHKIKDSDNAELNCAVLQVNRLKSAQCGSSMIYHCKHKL
- T1 sequence (Q13241 32-179, chain 2 of 2): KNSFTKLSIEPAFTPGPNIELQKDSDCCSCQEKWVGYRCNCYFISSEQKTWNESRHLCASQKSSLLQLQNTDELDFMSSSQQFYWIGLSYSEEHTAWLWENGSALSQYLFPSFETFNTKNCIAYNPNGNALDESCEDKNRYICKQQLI
- test name: SPR (IBIS MX96), mAb captured on anti-human IgG Fc, ECD heterodimer injected, 1:1 fit
observed property: Kd (µM)
Numbers only, in µM.

Examples from the recorded data:
binder	Kd [µM]
antibody 23686 (antibody, human IgG1, kappa, L234A L235A, V domains shown, Fully human IgG1-LALA (L234A/L235A), kappa) VH: EVQLVESGGGLVKPGGSLRLSCAASGFTFSSYSMNWVRQAPGKGLEWVSSISSSSSYIYYADSVKGRFTISRDNAKNSLYLQMNSLRAEDTAVYYCARDEWGLLGFDSWGQGTLVTVSS VL: EIVLTQSPATLSLSPGERATLSCRASQSISNYLAWYQQKPGQAPRLLIYDASNRATGIPARFSGSGSGTDFTLTISSLEPEDFAVYYCQQRTDWPPWTFGQGTKVEIKR	0.0039
antibody 23765 (antibody, human IgG1, kappa, L234A L235A, V domains shown, Fully human IgG1-LALA (L234A/L235A), kappa) VH: EVQLVESGGGLVKPGGSLRLSCAASGFTFSCCRMNWVRQAPGKGLEWVSSISSSSSYIYYADSVKGRFTISRDNAKNSLYLQMNSLRAEDTAVYYCARDGWNDVFDYWGQGTLVTVSS VL: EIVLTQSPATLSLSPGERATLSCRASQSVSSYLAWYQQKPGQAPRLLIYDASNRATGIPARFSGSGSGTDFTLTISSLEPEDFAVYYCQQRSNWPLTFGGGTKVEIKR	0.717
antibody 23566 (antibody, human IgG1, kappa, L234A L235A, V domains shown, Fully human IgG1-LALA (L234A/L235A), kappa; also called mAb 23566) VH: EVQLLESGGDLVQPGGSLRLSCAASGFTFDNYAMHWVRQAPGKGLEWVSTITNSGGTTYYADSVKGRFTLSRDNSKNTLYLQMNSLRAEDTAVYYCAKAHYYARGYFDFWGQGTLVTVSS VL: DIQMTQTPSSVSASVGDRVTITCRASQGISSWLAWYQQKPGKAPKLLIYAASSLQSGVPSRFSGSGSGTDFTLTISSLQPEDFATYYCQQANSFPYTFGQGTKLEIKR	0.098

We next turn to a different binder, shown below.
Look up Kd for this binder: antibody 23925 (antibody, human IgG1, kappa, L234A L235A, V domains shown, Fully human IgG1-LALA (L234A/L235A), kappa) VH: EVQLVESGGGLVQPGGSLRLSCAASGFTFSSYAMNWVRQAPGKGLEWVSTISNSGGTTYYADSVKGRFTISRDNSKDTLYLQMNSLRAEDTAVYYCAKAHYYARGYFDYWGQGTLVTVSS VL: DIQMTQSPSSVSASVGDRVTITCRASQGISSWLAWYQQKSGKAPKLLIYAASSLQIGVPSRFSGSGSGTDFTLTISSLQPEDFATYYCQQANSFPYTFGQGTKLEIKR
0.068
